A collection of molecules and their measured activation at 1 µM
# testedTarget: Human opiate κ receptors (Homo sapiens)
# assayText: κ opioid receptor functional assay, [35S]GTPγS binding (assay C)
# Assay type: biochemical
# particulars: 0.5 h, read-out: % activation functional assay at 1 μM
Numeric answer only, unit % assumed.

Consider the worked cases shown below.
molecule | scaleUnit | endpointResult
O=C(Cc1ccc(Cl)c(Cl)c1)N1CCN(C(=O)NCc2ccccc2)[C@H]2CCC[C@H](N3CCCC3)[C@H]21 [Example 100] | % | 105
COC(=O)N1CCN(C(=O)Cc2ccc(C(F)(F)F)c(Cl)c2)[C@@H]2[C@@H](N3CC[C@@H](O)C3)CCC[C@@H]21 [Example 113] | % | 102

Suppose we examine the molecule O=C(CO)N1CCN(C(=O)Cc2ccc(Cl)c(Cl)c2)C2C(N3CCCC3)CCCC21 (racemic) [Example 59] ; what activation at 1 µM value has been reported? 109

---

# testedTarget: Human opiate κ receptors (Homo sapiens, UniProt P41145)
# Sequence (P41145 whole entry): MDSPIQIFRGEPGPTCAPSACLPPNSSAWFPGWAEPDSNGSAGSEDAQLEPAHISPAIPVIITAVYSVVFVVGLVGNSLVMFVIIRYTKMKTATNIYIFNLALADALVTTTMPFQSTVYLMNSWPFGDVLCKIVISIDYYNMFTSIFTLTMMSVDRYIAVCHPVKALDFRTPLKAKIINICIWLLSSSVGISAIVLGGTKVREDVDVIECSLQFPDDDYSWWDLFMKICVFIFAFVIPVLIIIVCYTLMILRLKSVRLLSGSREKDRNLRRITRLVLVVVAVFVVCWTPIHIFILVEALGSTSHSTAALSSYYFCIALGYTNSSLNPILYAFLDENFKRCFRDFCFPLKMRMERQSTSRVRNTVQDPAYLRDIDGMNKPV
# assayText: κ opioid receptor functional assay, [35S]GTPγS binding (assay C)
# Format: biochemical
# particulars: GTPγS EC50 (nM)
A collection of molecules and their measured EC50

molecule | EC50
CCC(=O)N1CCN(C(=O)Cc2ccc(Cl)c(Cl)c2)C2C(N3CCCC3)CCCC21 (racemic) | < 10 nM
COC(=O)N1CCN(C(=O)Cc2ccc3c(c2)CCCC3)C2C(N3CCCC3)CCCC21 (racemic) | 10 to 100 nM
CC(C)(C)OC(=O)N1CCN(C(=O)Cc2ccc(Cl)c(Cl)c2)[C@@H]2[C@@H](N3CCCC3)CCC[C@@H]21 (racemic) | < 10 nM
CC(C)NC(=O)N1CCN(C(=O)Cc2ccc(Cl)c(Cl)c2)C2C(N3CCCC3)CCCC21 (racemic) | < 10 nM
COC(=O)N1CCN(C(=O)Cc2ccc(C(F)(F)F)cc2)C2C(N3CCCC3)CCCC21 (racemic) | < 10 nM
COC(=O)COC(=O)N1CCN(C(=O)Cc2ccc(Cl)c(Cl)c2)[C@@H]2[C@@H](N3CC[C@H](O)C3)CCC[C@@H]21 | < 10 nM
COC(=O)N1CCN(C(=O)Cc2ccc(C(F)(F)F)c(Cl)c2)C2C(N3CCCC3)CCCC21 (racemic) | < 10 nM
COC(=O)N1CCN(C(=O)Cc2cccc([N+](=O)[O-])c2)C2C(N3CCCC3)CCCC21 (racemic) | 10 to 100 nM
CC(C)C(=O)N1CCN(C(=O)Cc2ccc(Cl)c(Cl)c2)C2C(N3CCCC3)CCCC21 (racemic) | < 10 nM
O=C(Nc1ccccc1)N1CCN(C(=O)Cc2ccc(Cl)c(Cl)c2)C2C(N3CCCC3)CCCC21 (racemic) | < 10 nM

Suppose we examine the molecule COC(=O)N1CCN(C(=O)Cc2ccc(C(F)(F)F)c(Cl)c2)[C@@H]2[C@@H](N3CCCC3)CCC[C@@H]21 ; what EC50 value has been reported? < 10 nM

Okay, and COC(=O)N1CCN(C(=O)Cc2ccc(Cl)c(F)c2)C2C(N3CCCC3)CCCC21 (racemic) ? < 10 nM

Okay, and COC(=O)N1CCN(C(=O)Cc2ccc(Cl)cc2)[C@@H]2[C@@H](N3CC[C@H](O)C3)CCC[C@@H]21 ? 10 to 100 nM

---

# testedTarget: Human opiate κ receptors (Homo sapiens, UniProt P41145)
# assayText: κ opioid receptor functional assay, [35S]GTPγS binding (assay C)
# Assay type: biochemical
# particulars: 0.5 h, read-out: % activation functional assay at 1 μM
valueType: activation at 1 µM (%)
Numeric answer only, unit % assumed.

compound | activation at 1 µM, %
O=C(c1ncccn1)N1CCN(C(=O)Cc2ccc(Cl)c(Cl)c2)C2C(N3CCCC3)CCCC21 (racemic) [Example 82] | 97
O=C(c1ccccc1)N1CCN(C(=O)Cc2ccc(Cl)c(Cl)c2)C2C(N3CCCC3)CCCC21 (racemic) [Example 31] | 93
COC(=O)N1CCN(C(=O)Cc2cccc([N+](=O)[O-])c2)C2C(N3CCCC3)CCCC21 (racemic) [Example 3] | 105
CCN(C)[C@H]1CCC[C@H]2[C@@H]1N(C(=O)Cc1ccc(Cl)c(Cl)c1)CCN2C(=O)OC [Example 91] | 106
O=C(Nc1ccccc1)N1CCN(C(=O)Cc2ccc(Cl)c(Cl)c2)C2C(N3CCCC3)CCCC21 (racemic) [Example 43] | 107
COC(=O)N1CCN(C(=O)Cc2ccc(Cl)cc2)C2C(N3CCCC3)CCCC21 (racemic) [Example 47] | 101
COC(=O)N1CCN(C(=O)Cc2ccc(C(F)(F)F)cc2)C2C(N3CCCC3)CCCC21 (racemic) [Example 5] | 105
O=C(O)COC(=O)N1CCN(C(=O)Cc2ccc(Cl)c(Cl)c2)C2C(N3CCCC3)CCCC21 (racemic) [Example 69] | 101
O=C(C1CCCC1)N1CCN(C(=O)Cc2ccc(Cl)c(Cl)c2)C2C(N3CCCC3)CCCC21 (racemic) [Example 51] | 97
COC(=O)N1CCN(C(=O)Cc2ccc(C(F)(F)F)cc2)[C@@H]2[C@@H](N3CC[C@H](O)C3)CCC[C@@H]21 [Example 139] | 104

Suppose we examine the compound CCNC(=O)N1CCN(C(=O)Cc2ccc(Cl)c(Cl)c2)C2C(N3CCCC3)CCCC21 (racemic) [Example 40] ; what activation at 1 µM value has been reported? 96

Okay, and COC(=O)N1CCN(C(=O)Cc2cccc(C(F)(F)F)c2)[C@@H]2[C@@H](N3CC[C@H](O)C3)CCC[C@@H]21 [Example 142] ? 106

Okay, and COC(=O)N1CCN(C(=O)Cc2ccc3c(c2)CCCC3)C2C(N3CCCC3)CCCC21 (racemic) [Example 6] ? 97

Okay, and O=C(c1cccs1)N1CCN(C(=O)Cc2ccc(Cl)c(Cl)c2)C2C(N3CCCC3)CCCC21 (racemic) [Example 30] ? 110

Okay, and CC(C)NC(=O)N1CCN(C(=O)Cc2ccc(Cl)c(Cl)c2)[C@@H]2[C@@H](N3CCCC3)CCC[C@@H]21 [Example 99] ? 100

---

# testedTarget: Human opiate κ receptors (Homo sapiens)
# assayText: κ opioid receptor functional assay, [35S]GTPγS binding (assay C)
# Assay type: biochemical
valueType: EC50
In your response, the unit should come after the numeric value.

Suppose we examine the compound COC(=O)CCC(=O)N1CCN(C(=O)Cc2ccc(Cl)c(Cl)c2)[C@H]2[C@H]1CCC[C@@H]2N1CCCC1 (racemic) [Q, reference compound] ; what EC50 value has been reported? 530 nM

---

# testedTarget: Human opiate κ receptors (Homo sapiens, UniProt P41145)
# assayText: κ opioid receptor functional assay, [35S]GTPγS binding (assay C)
# Format: biochemical
# particulars: read-out: GTPγS EC50
valueType: EC50

compound | testedTarget | endpointResult
CNC(=O)C(=O)N1CCN(C(=O)Cc2ccc(Cl)c(Cl)c2)[C@@H]2[C@@H](N3CCCC3)CCC[C@@H]21.Cl [Example 118] | Human opiate κ receptors (Homo sapiens, UniProt P41145) | < 10 nM
COC(=O)N1CCN(C(=O)Cc2ccc(Cl)c(F)c2)C2C(N3CCC(O)C3)CCCC21.Cl (stereo not shown) [Example 115] | Human opiate κ receptors (Homo sapiens, UniProt P41145) | 10 to 100 nM
CC(C)NS(=O)(=O)N1CCN(C(=O)Cc2ccc(Cl)c(Cl)c2)[C@@H]2[C@@H](N3CC[C@H](O)C3)CCC[C@@H]21 [Example 134] | Human opiate κ receptors (Homo sapiens, UniProt P41145) | < 10 nM

Suppose we examine the compound CNS(=O)(=O)N1CCN(C(=O)Cc2ccc(Cl)c(Cl)c2)C2C(N3CCC(O)C3)CCCC21.Cl (stereo not shown) [Example 131] ; what EC50 value has been reported? < 10 nM

---

A collection of compounds and their measured EC50
# testedTarget: Human opiate κ receptors (Homo sapiens, UniProt P41145)
# assayText: κ opioid receptor functional assay, [35S]GTPγS binding (assay C)
# Format: biochemical
# particulars: GTPγS EC50 (nM)

Consider the worked cases shown below.
compound | EC50
COC(=O)N1CCN(C(=O)Cc2ccc(F)c(F)c2)[C@@H]2[C@@H](N3CC[C@H](O)C3)CCC[C@@H]21 | 10 to 100 nM
COC(=O)N1CCN(C(=O)Cc2cc(Cl)c3c(c2)OCCO3)C2C(N3CCCC3)CCCC21 (racemic) | 10 to 100 nM
O=C(Cc1ccc(Cl)c(Cl)c1)N1CCN(Cc2cnc[nH]2)C2CCCC(N3CCCC3)C21 (racemic) | < 10 nM
NC(=O)CNC(=O)N1CCN(C(=O)Cc2ccc(Cl)c(Cl)c2)C2C(N3CCCC3)CCCC21 (racemic) | 10 to 100 nM
O=C(Cc1ccc(Cl)c(Cl)c1)N1CCN(Cc2ccccc2)[C@H]2CCC[C@H](N3CCCC3)[C@H]21 (racemic) | < 10 nM
COC(=O)N1CCN(C(=O)Cc2ccc(C(F)(F)F)cc2)C2C1CCCC2N(C)C(C)C (racemic) | < 10 nM

Next item in the queue.
Suppose we examine the compound COC(=O)N1CCN(C(=O)Cc2ccc(OC)c(F)c2)C2C(N3CCCC3)CCCC21 (racemic) ; what EC50 value has been reported? 100 to 1000 nM

All values here come from patent US20160122307A1.
